Test system: BT-549 breast
Test: NCI-60 one-dose screen, 48 h
Details: 10 µM unless noted
Description: Growth inhibition of the BT-549 human tumor cell line is measured as a screen for anti-cancer activity. Cells are grown in 96 well plates and exposed to the test compound for 48 hours. Compounds are tested at a single concentration, which is 10^-5 M for most compounds. The reported endpoint is percent growth (GI% or GIPRCNT), where numbers from 0 - 100% represent growth inhibition, and numbers from -100% - 0 represent cell death. For example, a value of 40 represents 60% growth inhibition. […]
About 83,000 compounds went through this panel and 20% of them were active in at least one assay; those are over-represented in the sample as a whole. Calls of active or inactive are those of the source. The calls were made as follows: active = growth percent below 10; inactive = the rest.
Possible outcomes: Y for active, N for inactive

# compound, assigned category
data = [
    ("NC(=S)N/N=C/Cc1ccccc1", "N"),
    ("c1coc(-c2c3ccc(=[N+]4CCCCC4)cc-3oc3cc(N4CCCCC4)ccc23)c1", "Y"),
    ("Cc1ccc(S(=O)(=O)NCC[C@@H]2C[C@H]2c2cc3ccccc3s2)cc1", "N"),
    ("CC/C=C\\C[C@H](O)C/C=C1/C(=O)C=C[C@@H]1C/C=C\\CCCCO", "Y"),
    ("Clc1cc(Cl)cc(Nc2ccc3cc(OCCCN4CCOCC4)ccc3n2)c1", "N"),
    ("Cc1ccc2c(c1)Sc1c(ccc3ccccc13)N2", "N"),
    ("Cc1nc2ccccc2n1CC1NC(=O)NC1=O (centres undefined)", "N"),
    ("Cn1c(-c2c(N)n(Cc3cccnc3)c3nc(C#N)c(C#N)nc23)nc2ccccc21", "N"),
    ("Oc1ccc(CN2CCC(N3CCOCC3)CC2)c2cccnc12", "N"),
]

====

tested on: SF-268 CNS; experiment: NCI-60 one-dose screen, 48 h (100 = growth as untreated, 0 = no growth, -100 = all killed); conditions: 10 µM unless noted
Compounds without any hit were thinned out: in the full panel of roughly 83,000, 20% have a hit. Calls of active or inactive are those of the source. The calls were made as follows: active = growth percent below 10; inactive = the rest.
Below, each entry is listed with its recorded growth.

# mol, growth
data = [
    ("COc1cc(N=Nc2cc(Cc3ccc(N(C)C)cc3)c(N)cc2N(C)C)c2ncccc2c1", "17.3% (inactive)"),
    ("Cc1c(O)cc(-c2cnc(N/N=C\\c3ccc(Cl)cc3)s2)c(O)c1C", "92.4% (inactive)"),
    ("Cc1cc(C(=O)c2ccccc2)c(C)c2c1[nH]c1ccc(Cl)cc12", "22.8% (inactive)"),
]

====

test system: U251 CNS; experiment: NCI-60 one-dose screen, 48 h (100 = growth as untreated, 0 = no growth, -100 = all killed); conditions: 10 µM unless noted
This is part of a sample that, as a whole, favours compounds with a hit. Of some 83,000 tested, about 20% had one in any assay.

# compound, tested system, readout units, growth
records = [
    ("Cn1c2c(c3ccc(Cl)c(Cl)c31)C(C#N)C1(CCNCC1)NC2=O (centres undefined)", "U251 CNS", "%", 47.7),
    ("CCOP(=O)(OCC)C1CP(=O)(c2ccccc2)CC(C)=C1Cl (centres undefined)", "U251 CNS", "%", 96.9),
    ("COc1ccc(CN2C(=O)C(Cl)=C(Nc3cccc(C(F)(F)F)c3)C2=O)cc1", "U251 CNS", "%", 28.2),
    ("O=C(/C=C/c1c(Cl)nc2sccn12)c1ccc(F)c(F)c1", "U251 CNS", "%", 90.7),
]

====

tested on: IGROV1 ovarian; assay: NCI-60 one-dose screen, 48 h (100 = growth as untreated, 0 = no growth, -100 = all killed); details: 10 µM unless noted
This is part of a sample that, as a whole, favours compounds with a hit. Of some 83,000 tested, about 20% had one in any assay.
Response key: fulfilled means growth >= 80%; not fulfilled means growth < 80%.

# compound, assigned category
measured = [
    ("CC(C)(C)OC(=O)Nc1ccc2c(c1)C(NC(=O)Nc1cccc(C#N)c1)CC(C)(C)O2 (configuration not stated)", "not fulfilled"),
    ("C=C1C(=O)O[C@H]2[C@H]1CC/C(COC(=O)C(=O)c1c[nH]c3ccc(OC)cc13)=C\\CC[C@@]1(C)O[C@@H]21", "not fulfilled"),
    ("NC(=N\\N=C/c1ccccc1[N+](=O)[O-])/C(N)=N\\N=C/c1ccccc1[N+](=O)[O-]", "fulfilled"),
    ("N/C(=N\\c1nc2ccccc2s1)NC(=O)Nc1cccc(Cl)c1", "not fulfilled"),
    ("Cc1c(C(=O)OC(=NC2CCCCC2)NC2CCCCC2)sc2c1c(=O)nc1c(C#N)n[nH]n12", "fulfilled"),
    ("N#Cc1c(N)nn(C(=O)c2ccc(NC(=O)c3ccccn3)cc2)c1-c1ccc(Cl)cc1", "not fulfilled"),
    ("CNC(=O)c1cc(Oc2ccc3nc(Nc4ccc(Cl)c(C(F)(F)F)c4)ccc3c2)ccn1", "fulfilled"),
    ("O=C(CSc1nnc(-c2ccc(NC(=O)c3cccnc3)cc2)o1)N[C@@H](Cc1ccc(O)cc1)C(=O)O", "fulfilled"),
    ("Cc1c(Cl)cc(-n2c(=O)c3ccccc3c3ccccc3c2=O)cc1Cl", "fulfilled"),
    ("C[C@]12CC[C@@H]3c4cc(OC(F)F)c(O)cc4CC[C@H]3[C@@H]1CC[C@@H]2OS(N)(=O)=O", "not fulfilled"),
    ("O=c1[nH]nc(-c2ccccc2)c2c(-c3ccccc3)onc12", "not fulfilled"),
    ("NC(N)=NN=C(c1ccccc1)c1ccccc1", "not fulfilled"),
    ("Cc1cc(NCc2cc(Nc3ccnc4cc(Cl)ccc34)ccc2F)nc(N2CCN(C)CC2)n1", "not fulfilled"),
    ("COc1ccc(-c2c(N)n[nH]c2-c2ccc(Cl)cc2O)cc1OC", "fulfilled"),
    ("COc1ccc(-c2cc(-c3cc(OC)c(OC)c(OC)c3)c(C#N)c(N3CCOCC3)n2)cc1O", "not fulfilled"),
    ("NC(N)=Nc1nc2ccccc2n2c1nc1ccccc12", "not fulfilled"),
    ("CCCCCCN(CCCCCC)c1ccc(/C=C2/SC(=O)N(c3nc(N4CCCC4)nc(N4CCCC4)n3)C2=O)c(C)c1", "not fulfilled"),
]

====

tested on: 786-0 renal; assay: NCI-60 one-dose screen, 48 h; conditions: 10 µM unless noted
This is part of a sample that, as a whole, favours compounds with a hit. Of some 83,000 tested, about 20% had one in any assay. Active and inactive are the calls of the source. The calls were made as follows: active = growth percent below 10; inactive = the rest.
Possible outcomes: active, inactive

# compound, tested system, assigned category
rows = [
    ("N#Cc1c2c(nn(-c3ccccc3)c1=O)C(O)=C([N+](=O)[O-])C(c1ccccc1)C2 (stereo unspecified)", "786-0 renal", "inactive"),
    ("CCN(CC)S(=O)(=O)c1cccc(-c2ccc3c(NC(=O)C4CC4)n[nH]c3c2)c1", "786-0 renal", "inactive"),
    ("N=C1C(c2nc(-c3ccc(Br)cc3)cs2)=C(O)CN1Cc1cccnc1", "786-0 renal", "inactive"),
    ("Cc1ccc(-n2nc3c(c(C#N)c2=O)CC(c2ccccc2Cl)C([N+](=O)[O-])=C3O)cc1 (stereo unspecified)", "786-0 renal", "inactive"),
    ("C=CCNc1nc(NN2C(=O)c3cccc4cccc(c34)C2=O)nc(-n2cnc3ccccc32)n1", "786-0 renal", "inactive"),
    ("NC(N)=NN=C(c1ccccc1)c1ccccc1", "786-0 renal", "inactive"),
    ("Cc1ccc(S(=O)(=O)Oc2cc(OS(=O)(=O)c3ccc(C)cc3)cc(OS(=O)(=O)c3ccc(C)cc3)c2)cc1", "786-0 renal", "inactive"),
    ("O=C1c2cccc(NCCN=Cc3cc([N+](=O)[O-])ccc3O)c2C(=O)c2c(NCCN=Cc3cc([N+](=O)[O-])ccc3O)cccc21", "786-0 renal", "inactive"),
    ("COc1ccc(-c2nc(SCCC(C)C)nc(N/N=C\\c3cccc(Cl)c3)c2C#N)cc1", "786-0 renal", "inactive"),
    ("N#Cc1nc(C#N)c(Sc2ccccc2)c(Sc2ccccc2)c1Sc1ccccc1", "786-0 renal", "active"),
    ("O=C(Nc1cccc(Cl)c1)c1cc(N=Nc2ccc([N+](=O)[O-])cc2Cl)ccc1O", "786-0 renal", "inactive"),
]

====

Below, each entry is listed with its recorded growth.
tested on: CAKI-1 renal; assay: NCI-60 one-dose screen, 48 h (100 = growth as untreated, 0 = no growth, -100 = all killed); conditions: 10 µM unless noted
About 83,000 compounds went through this panel and 20% of them were active in at least one assay; those are over-represented in the sample as a whole.

# compound, growth (%)
measured = [
    ("Cc1cc(NCc2cc(Nc3ccnc4cc(Cl)ccc34)ccc2F)nc(N2CCN(C)CC2)n1", 61.8),
    ("CCCCCc1nc2c(c3c1CCCC3)CCCC2", 60.9),
    ("O=C1N=c2cc3c(cc2=C/C1=C/c1sc(=S)n(CCc2ccc(O)cc2)c1O)OCCO3", 59.7),
    ("CCCCCCCCCCCC(c1ccccc1)[N+](C)(C)C (configuration not stated)", 102),
    ("Cc1cc(Cl)nc(NCc2cc(Nc3ccnc4cc(Cl)ccc34)ccc2F)n1", 75.3),
    ("CC1OC(O[C@H]2/C=C/C=C/C=C/C=C/C=C/C=C/C=C/[C@H](C)[C@@H](O)[C@@H](C)[C@H](C)OC(=O)CC(O)CC(O)CCC(O)C(O)CC(O)C[C@]3(O)C[C@H](O)C(C(=O)O)C(C2)O3)C(O)[C@H](N)C1O (some centres not stated)", 36.1),
    ("COc1cc2nc(Cl)nc(Nc3ccc(S(=O)(=O)Nc4nccs4)cc3)c2cc1OC", 88.2),
]
